System: ATP;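 note: ATP exposure 15 min at 22 °C before imaging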
Assay: switch fluorescence ratio, 500 uM ATP over buffer (Cy3 cluster intensity, sum of 5 cycles each) (fold (ratio)); higher = stronger signal-on switching upon ATP binding; sequences stand for … in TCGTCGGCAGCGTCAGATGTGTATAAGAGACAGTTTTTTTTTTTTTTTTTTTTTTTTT…TC
Conditions: aptamer strand: ATP DNA aptamer (quencher-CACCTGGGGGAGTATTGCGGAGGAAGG + anchor), 100 nM annealed; ATP concentration: 500 uM
OUTCOME MEASURE: switch fluorescence ratio
Would you mind answering with just the numeric figure?

# returns recorded switch fluorescence ratio (system: ATP) for `CAGATAGTGT`;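 note: ATP exposure 15 min at 22 °C before imaging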
1.02

# returns recorded switch fluorescence ratio (system: ATP) for `GTAGTGGCAG`;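 note: ATP exposure 15 min at 22 °C before imaging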
0.992

# returns recorded switch fluorescence ratio (system: ATP) for `TTAAAGTGAA`;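 note: ATP exposure 15 min at 22 °C before imaging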
0.988

# returns recorded switch fluorescence ratio (system: ATP) for `ATTATGGACG`;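 note: ATP exposure 15 min at 22 °C before imaging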
1.06

# returns recorded switch fluorescence ratio (system: ATP) for `GTGCTTCGGT`;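 note: ATP exposure 15 min at 22 °C before imaging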
0.948

* * *

// values below are reported switch fluorescence ratio
Tested on: ATP;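 note: ATP exposure 15 min at 22 °C before imaging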
Experiment: switch fluorescence ratio, 500 uM ATP over buffer (Cy3 cluster intensity, sum of 5 cycles each) (fold (ratio)); higher = stronger signal-on switching upon ATP binding; sequences stand for … in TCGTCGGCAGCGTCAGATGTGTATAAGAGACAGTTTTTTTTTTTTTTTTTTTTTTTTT…TC
Conditions: aptamer strand: ATP DNA aptamer (quencher-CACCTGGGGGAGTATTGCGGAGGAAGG + anchor), 100 nM annealed; ATP concentration: 500 uM
Would you mind answering with just the numeric figure?

Example sequences with recorded switch fluorescence ratio:
# returns recorded switch fluorescence ratio (system: ATP) for `TAGGCCTGGG`;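 note: ATP exposure 15 min at 22 °C before imaging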
1

# returns recorded switch fluorescence ratio (system: ATP) for `GCAGTAGTTG`;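 note: ATP exposure 15 min at 22 °C before imaging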
1.01

# returns recorded switch fluorescence ratio (system: ATP) for `GATTGGGGAA`;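 note: ATP exposure 15 min at 22 °C before imaging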
1.02

# returns recorded switch fluorescence ratio (system: ATP) for `GATCTTTGTT`;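 note: ATP exposure 15 min at 22 °C before imaging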
1.01

Further cases:
# returns recorded switch fluorescence ratio (system: ATP) for `GGGGGTGCAT`;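 note: ATP exposure 15 min at 22 °C before imaging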
0.964

# returns recorded switch fluorescence ratio (system: ATP) for `CAGAATTGGG`;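 note: ATP exposure 15 min at 22 °C before imaging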
0.967

# returns recorded switch fluorescence ratio (system: ATP) for `TTTGGAGGGG`;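 note: ATP exposure 15 min at 22 °C before imaging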
1.03

# returns recorded switch fluorescence ratio (system: ATP) for `GTGGATTGGA`;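 note: ATP exposure 15 min at 22 °C before imaging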
1.05

# returns recorded switch fluorescence ratio (system: ATP) for `CTGGTTTTGT`;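 note: ATP exposure 15 min at 22 °C before imaging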
1.04

# returns recorded switch fluorescence ratio (system: ATP) for `TGAAGTTTAC`;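 note: ATP exposure 15 min at 22 °C before imaging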
2.03

* * *

// values below are reported switch fluorescence ratio
Tested on: ATP;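 note: ATP exposure 15 min at 22 °C before imaging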
Experiment: switch fluorescence ratio, 500 uM ATP over buffer (Cy3 cluster intensity, sum of 5 cycles each) (fold (ratio)); higher = stronger signal-on switching upon ATP binding; sequences stand for … in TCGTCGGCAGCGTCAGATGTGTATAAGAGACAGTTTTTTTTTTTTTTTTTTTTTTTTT…TC
Details: aptamer strand: ATP DNA aptamer (quencher-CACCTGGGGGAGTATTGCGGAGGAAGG + anchor), 100 nM annealed; ATP concentration: 500 uM
Would you mind answering with just the numeric figure?

# returns recorded switch fluorescence ratio (system: ATP) for `CGGAACGAGA`;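 note: ATP exposure 15 min at 22 °C before imaging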
0.983

# returns recorded switch fluorescence ratio (system: ATP) for `TTATCTTAAT`;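 note: ATP exposure 15 min at 22 °C before imaging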
1.01

# returns recorded switch fluorescence ratio (system: ATP) for `ACGTTCGTAC`;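 note: ATP exposure 15 min at 22 °C before imaging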
1.04

# returns recorded switch fluorescence ratio (system: ATP) for `GGTTTGCAAG`;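 note: ATP exposure 15 min at 22 °C before imaging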
0.986

# returns recorded switch fluorescence ratio (system: ATP) for `GCAGTATGAG`;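 note: ATP exposure 15 min at 22 °C before imaging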
0.99

# returns recorded switch fluorescence ratio (system: ATP) for `GAGTCGAGTG`;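 note: ATP exposure 15 min at 22 °C before imaging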
1.01

# returns recorded switch fluorescence ratio (system: ATP) for `TACTATGGTC`;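 note: ATP exposure 15 min at 22 °C before imaging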
1.01

# returns recorded switch fluorescence ratio (system: ATP) for `CTTTTGAGGG`;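 note: ATP exposure 15 min at 22 °C before imaging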
0.974

Further cases:
# returns recorded switch fluorescence ratio (system: ATP) for `GCTGTCATGA`;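 note: ATP exposure 15 min at 22 °C before imaging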
0.985

# returns recorded switch fluorescence ratio (system: ATP) for `GCCCATGAGT`;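 note: ATP exposure 15 min at 22 °C before imaging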
1.01

# returns recorded switch fluorescence ratio (system: ATP) for `TGTTTTTAGT`;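 note: ATP exposure 15 min at 22 °C before imaging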
0.994

# returns recorded switch fluorescence ratio (system: ATP) for `TCGAAGCCTA`;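 note: ATP exposure 15 min at 22 °C before imaging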
1.17

# returns recorded switch fluorescence ratio (system: ATP) for `TGTATTTAC`;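 note: ATP exposure 15 min at 22 °C before imaging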
1.11

# returns recorded switch fluorescence ratio (system: ATP) for `GCCGTAAGGA`;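 note: ATP exposure 15 min at 22 °C before imaging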
1.06

# returns recorded switch fluorescence ratio (system: ATP) for `AGGTAAAGTA`;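 note: ATP exposure 15 min at 22 °C before imaging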
0.915

# returns recorded switch fluorescence ratio (system: ATP) for `TAAGATGGAG`;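 note: ATP exposure 15 min at 22 °C before imaging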
1

# returns recorded switch fluorescence ratio (system: ATP) for `GGGGGTTGCG`;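 note: ATP exposure 15 min at 22 °C before imaging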
0.979

Data provenance is the supplement of paper PMC10126150.
